Assay: Half life in human hepatocytes at 1 uM by LC-MS/MS analysis
Format: ADME, cell-based, Hepatocyte
Consider the following compounds and their measured half-life at 1 µM readings.
Numeric answer only, unit h assumed.

Memo: CNC(=O)/C=C/C=C(\C)[C@@H]1C/C=C/C=C/[C@H](O)[C@H](C)[C@@H](O)[C@@H](CCC(C)=O)C(=O)N[C@@H](C(C)C)C(=O)N[C@@H](Cc2cccc(O)c2)C(=O)N2CCCC(N2)C(=O)O1 (stereo in doubt) , reported half-life at 1 µM: 3.2

Others:
Short answer for CC(=O)CC[C@H]1C(=O)N[C@@H](C(C)C)C(=O)N[C@@H](Cc2cccc(O)c2)C(=O)N2CCCC(N2)C(=O)O[C@H](/C(C)=C/C=C/C(=O)N2CCCCO2)C/C=C/C=C/[C@H](O)[C@H](C)[C@H]1O (stereo partly drawn) : half-life at 1 µM was 3.67

* * *

Experiment: Cytostatic activity against human Huh5-2 cells assessed as decrease in cell proliferation after 3 days by MTS method
Type: ADME, cell-based, Huh-5-2
Reported CC50 at 72 h is given for each of the following molecules.

Below are worked cases with known answers.
So, CC[C@H]1C[C@H](C)[C@@]2(NC1=O)O[C@@H](C[C@H](O)[C@@H](C)CC/C=C/C=C(\C)[C@@H]1C/C=C/C=C/[C@H](O)[C@H](C)[C@@H](O)[C@@H](CCC(C)=O)C(=O)N[C@@H](C(C)C)C(=O)N[C@@H](Cc3cccc(O)c3)C(=O)N3CCCC(N3)C(=O)O1)[C@H](C)[C@H](O)[C@@H]2C (stereo partly specified) ? Its CC50 at 72 h was 9.1 µM

What the record says about CON(C)C(=O)/C=C/C=C(\C)[C@@H]1C/C=C/C=C/[C@H](O)[C@H](C)[C@@H](O)[C@@H](CCC(C)=O)C(=O)N[C@@H](C(C)C)C(=O)N[C@@H](Cc2cccc(O)c2)C(=O)N2CCCC(N2)C(=O)O1 (stereo partly specified) : CC50 at 72 h is > 100 µM

Continuing:
CC50 at 72 h measured on CCC[C@H](NC(=O)[C@@H]1[C@H]2CCC[C@H]2CN1C(=O)[C@@H](NC(=O)[C@@H](NC(=O)c1cnccn1)C1CCCCC1)C(C)(C)C)C(=O)C(=O)NC1CC1 = > 74 µM

Entry CC(=O)CC[C@H]1C(=O)N[C@@H](C(C)C)C(=O)N[C@@H](Cc2cccc(O)c2)C(=O)N2CCCC(N2)C(=O)O[C@H](/C(C)=C/C=C/C(=O)N(C)C2CCCCC2)C/C=C/C=C/[C@H](O)[C@H](C)[C@H]1O (stereo partly specified) , CC50 at 72 h reported as 66 µM

# CC50 at 72 h of CC(=O)CC[C@H]1C(=O)N[C@@H](C(C)C)C(=O)N[C@@H](Cc2cccc(O)c2)C(=O)N2CCCC(N2)C(=O)O[C@H](/C(C)=C/C=C/C(=O)NC2CCCCC2)C/C=C/C=C/[C@H](O)[C@H](C)[C@H]1O (stereo in doubt) = > 100 µM

For CCN(CC)C(=O)/C=C/C=C(\C)[C@@H]1C/C=C/C=C/[C@H](O)[C@H](C)[C@@H](O)[C@@H](CCC(C)=O)C(=O)N[C@@H](C(C)C)C(=O)N[C@@H](Cc2cccc(O)c2)C(=O)N2CCCC(N2)C(=O)O1 (stereo partly specified) the molecule record lists CC50 at 72 h as > 100 µM
